test system: Toxoplasma gondii; assay: Effect of compound on percent survival of wild type (RH) strain of Toxoplasma gondii grown in human fibroblast cells at 5 uM; assay type: functional
Measured survival at 5 µM by item

[
  {
    "compound": "CCc1nc(N)nc(N)c1-c1ccc(Cl)cc1 [PYRIMETHAMINE]",
    "value-units": "%",
    "survival at 5 µM": 53.8
  },
  {
    "compound": "CC(C)(C)c1ccc(CSc2ncnc3c2ncn3[C@@H]2O[C@H](CO)[C@@H](O)[C@H]2O)cc1",
    "value-units": "%",
    "survival at 5 µM": 83.3
  },
  {
    "compound": "Nc1ccc(S(=O)(=O)Nc2ncccn2)cc1 [SULFADIAZINE]",
    "value-units": "%",
    "survival at 5 µM": 75.7
  },
  {
    "compound": "OC[C@H]1O[C@@H](n2cnc3c(SCc4ccc(OC(F)(F)F)cc4)ncnc32)[C@H](O)[C@@H]1O",
    "value-units": "%",
    "survival at 5 µM": 93.1
  },
  {
    "compound": "OC[C@H]1O[C@@H](n2cnc3c(SCc4ccc(Cl)cc4Cl)ncnc32)[C@H](O)[C@@H]1O",
    "value-units": "%",
    "survival at 5 µM": 94.8
  }
]

====

assay: Effect of compound on percent survival of human fibroblast cells in culture was determined at 10 uM; type: functional; settings: read-out: Survival
Measured viability at 10 µM by item
recorded-metric: viability at 10 µM (%)

[
  {
    "molecule-smiles": "OC[C@H]1O[C@@H](n2cnc3c(SCc4ccc(OC(F)(F)F)cc4)ncnc32)[C@H](O)[C@@H]1O",
    "number": 99.9
  },
  {
    "molecule-smiles": "OC[C@H]1O[C@@H](n2cnc3c(SCc4ccc(Cl)cc4Cl)ncnc32)[C@H](O)[C@@H]1O",
    "number": 99.2
  },
  {
    "molecule-smiles": "CC(C)(C)c1ccc(CSc2ncnc3c2ncn3[C@@H]2O[C@H](CO)[C@@H](O)[C@H]2O)cc1",
    "number": 100
  },
  {
    "molecule-smiles": "Nc1ccc(S(=O)(=O)Nc2ncccn2)cc1",
    "number": 99.7
  },
  {
    "molecule-smiles": "CCc1nc(N)nc(N)c1-c1ccc(Cl)cc1",
    "number": 98.8
  }
]
